The measured values listed here are drawn from patent US12582654B2.

This document collects pIC50 values reported for FGFR4 kinase (Homo sapiens).
pIC50: −log10 of the molar value.

# compound, measurement target, pIC50
rows = [
    ("C=CC(=O)Nc1cc(N2CCC(N(C)CCOC)CC2)ccc1Nc1ncc(C#N)c(Nc2ccccc2OC(C)C)n1 [Example 56]", "FGFR4 kinase (Homo sapiens)", "7.30 to 8.00"),
    ("C=CC(=O)Nc1cc(N2CCN(CC)CC2)ccc1Nc1ncc(C#N)c(Nc2ccc(C)cc2OC(C)C)n1 [Example 30]", "FGFR4 kinase (Homo sapiens)", "7.30 to 8.00"),
]

Q: Indicate its recorded pIC50; the compound in question is C=CC(=O)Nc1cc(N2CCN(CC)CC2)c(C)cc1Nc1ncc(C#N)c(Nc2ccccc2OC(C)C)n1 [Example 8]
Ans: 7.30 to 8.00

Q: Indicate its recorded pIC50; the compound in question is C=CC(=O)Nc1cc(N2CCC(N(C)CCCO)CC2)ccc1Nc1ncc(C#N)c(Nc2ccccc2OC(C)C)n1 [Example 68]
Ans: ≥ 8.00

Q: Indicate its recorded pIC50; the compound in question is C=CC(=O)Nc1cc(N2CCC(N(C)CCCSC)CC2)ccc1Nc1ncc(C#N)c(Nc2ccccc2OC(C)C)n1 [Example 74]
Ans: ≥ 8.00

Q: Indicate its recorded pIC50; the compound in question is C=CC(=O)Nc1cc(N2CCC(N3CCN(CCO)CC3)CC2)ccc1Nc1ncc(C#N)c(Nc2ccccc2OC(C)C)n1 [Example 59]
Ans: 7.30 to 8.00
